B1: tRNA (parent)
chain: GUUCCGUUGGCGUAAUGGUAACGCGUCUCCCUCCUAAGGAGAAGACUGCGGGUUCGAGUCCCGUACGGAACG

Variants of: B1
Protocol Text: yeast fitness relative to wild type (ratio to wild type); higher = fitter; tRNA-Arg(CCU), competitive growth, 37 C, YPD
Variants at the floor of the assay were thinned out.
Property Label: yeast fitness

| Sequence Data | Result |
| --- | --- |
| GUUCCGUAGGCGUAAUGGUAACGGGUCUCCCUCCUAAGGGGAAGACUGUGGGUUCCAGUCCCGUACGGAACG | ≤ 0.5 |
| GUUCCCCUGGCGUAAUGGUAACGCGUUUCCCUCCUAAGGAGAAGACUGCGGGUUCGAGUCCCGUACGGAACG | ≤ 0.5 |
| GUUCCGUUGGCGAAAUGGUAACGCGUUUCCCUCCUAAGGAGAAGACUGCGGGUUGGAGUCCCGUACGGAACG | ≤ 0.5 |
| GUUCCGUUGGCGUAAUGGUAACGCGUCUCCUUCCUACGGAGAAGACUGCGGGUUUGAGUCCCGUUCGGAGCG | ≤ 0.5 |
| GUUCCGUUGGCGUAAUGGUAUCGCGUCUCCCUCCCAAGGAGAAGACUGCGCGUUCGAGUCCCGUACGGAACG | ≤ 0.5 |
| GUUUCGUUGGCGUAAUGGUAACGCGUCUCCCUACUAAGGAGAAGACUCCGGGUUCGAGUCCCGUACGGAACG | ≤ 0.5 |
| GUUCCGUUGGCGUAAUAGUAACGCGUCUCGCUCCUAAGGAGAAGACUGCGGGUUCGAGUCCCGUACCGAACG | ≤ 0.5 |
| GUUCCGUUGGCCUAAUGGUAACGCGUCUCCCGGCUAAGGAGAAGACUGCGGGUUCGAAUCCCGUACGGAACG | ≤ 0.5 |
| GUUCCGUUGGCGUAAGGGUAACGCGUCUCCCUCCUGAGGAGAAGACUGCGGGUUCGAGUCCCGUGCGGAACG | ≤ 0.5 |
